Tested on: NCI-H292
Test protocol: Cytotoxicity against human NCI-H292 cells assessed as inhibition of cell viability after 72 hrs by MTT assay
Assay type: functional, cell-based
Test parameters: NCI-H292, 72 h
Listing: IC50 of selected compounds
Give a bare numeral; the unit µM is implied.

Please review the following examples before continuing.
Compound: FC(F)(F)c1ccc(/C=N/Nc2nc(-c3ccc(Cl)c(Cl)c3)cs2)cc1
Reported property: IC50
Numeric value: 6.57

Compound: N=C(S)N/N=C/c1ccc(C(F)(F)F)cc1
Reported property: IC50
Numeric value: 10.8

Compound: COc1cccc2c1C(=O)c1c(O)c3c(c(O)c1C2=O)C[C@@](O)(C(=O)CO)C[C@@H]3O[C@H]1C[C@H](N)[C@H](O)[C@H](C)O1 [DOXORUBICIN]
Reported property: IC50
Numeric value: 0.19

Compound: FC(F)(F)c1ccc(/C=N/Nc2nc(-c3ccc(Cl)cc3Cl)cs2)cc1
Reported property: IC50
Numeric value: 10.4

Look at this compound and give its reported IC50. `O=[N+]([O-])c1cccc(-c2csc(N/N=C/c3ccc(C(F)(F)F)cc3)n2)c1`
22.8

Endpoint output: IC50 of `CNC(=S)N/N=C/c1ccc(C(F)(F)F)cc1` . Value?
20.8

I am curious: what IC50 value has been reported for `O=[N+]([O-])c1ccc(-c2csc(N/N=C/c3ccc(C(F)(F)F)cc3)n2)cc1` ?
7.41
